Target: UniProtKB A0A0M3PNA2
Sequence (A0A0M3PNA2 entry or part of it): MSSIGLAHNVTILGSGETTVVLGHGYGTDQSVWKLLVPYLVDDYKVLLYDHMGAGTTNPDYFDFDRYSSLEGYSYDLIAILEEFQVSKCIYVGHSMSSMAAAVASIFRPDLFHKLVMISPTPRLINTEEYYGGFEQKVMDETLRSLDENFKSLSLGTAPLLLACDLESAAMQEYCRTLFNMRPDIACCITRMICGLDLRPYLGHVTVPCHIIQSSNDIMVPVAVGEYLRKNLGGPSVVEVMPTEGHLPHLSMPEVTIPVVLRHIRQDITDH
Assay: Competitive inhibition of ShHTL7 with Yoshimulactone Green (YLG) as substrate
Format: biochemical
Conditions: ShHTL7; YLG competition; Supplementary Fig. 27; read-out: IC50, replicate 1
In this section we review reported IC50 values for a set of molecules.
Number only, in µM; omit the unit.

Answered examples (2):
>>> df
                                   molecule  measured_attribute  obs_value
0  CC1=CC(CC(=O)N2CCN(C(=O)COc3ccc(Br)cc3C)CC2)OC1=O (stereo not drawn)                IC50       5.98
1  CC1=C[C@H](OC(=O)N2CCN(C(=O)COc3ccc(Br)cc3C)CC2)OC1=O [(S)-4a]                IC50       1.06

Next, consider the following molecule.
Which IC50 is reported for this molecule? CC1=CC(OC(=O)N2CCN(C(=O)COc3ccc(Br)cc3C)CC2)OC1=O (stereo not drawn)
0.953
